Test system: mouse Smad7 mRNA
Experiment: Pharmacology: mouse Smad7 mRNA expression in liver, kidney, duodenum, ileum and colon after subcutaneous administration in CD-1 mice (Example 6)
Type: in vivo
Conditions: 50 mg/kg subcutaneous twice weekly for 7 weeks, liver, normalized to GAPDH
Strand notation (5' to 3'): a small letter for the sugar, then the base; units joined by * are phosphorothioate-linked, units joined directly phosphodiester-linked; [ ] holds rarer units or linkages, { } end groups; capitals alone tell only the bases. k = constrained ethyl (cEt); [5mC] = 5-methylcytosine; d = 2'-deoxy (DNA)
Tick Yes if % inhibition of Smad7 mRNA expression (compared to control), Liver is 20% or greater. Tick No if % inhibition of Smad7 mRNA expression (compared to control), Liver is less than 20%.

799144 (antisense kT*kT*kG*dG*dG*dT*dT*dA*dT*dG*dA*d[5mC]*dG*kG*kA*k[5mC]) [compound 799144] | No
790615 (CCAATGAGAATGCTTC; 3-10-3 cEt gapmer, further chemistry not given here) [compound 790615] | No
830037 (antisense CTATTGGCTGATCTGG; 3-10-3 cEt gapmer, further chemistry not given here) [compound 830037] | Yes

*Q* Check if % inhibition of Smad7 mRNA expression (compared to control), Liver >= 20% (inclusive). Item: 830121 (AGAATCAAGCCCTGGC; 3-10-3 cEt gapmer, further chemistry not given here) [compound 830121]
*A* Yes
